Test system: Rat peritoneal macrophages
test: Inhibition of priming of rat peritoneal macrophages, Superoxide Anion (O2-) assay
Type: cell-based
condition_details: Peritoneal macrophage, opsonized zymosan (3 mg/mL) as stimulus, rrIFN-γ (1000Units/mL), compound 0 to 1000µM, superoxide anion readout, read-out: IC₅₀ (inhibits the priming of rat macrophages in vitro)
Structures can show the parent of a compound that is named as a salt.
readout: IC50 (µM)
Write it as a number; the unit µM goes unstated.

# return IC50 for Nc1ncnc2c1ncn2[C@H]1C=C[C@@H](O)C1 [Example 1, hydrochloride] , test system: Rat peritoneal macrophages
25
